Consider the following compounds; for each one, report its INHIBITION.
- Tested on: Plasmodium berghei
- ASSAY_PROTOCOL: Screen against P. berghei liver stage (PbLuc), transformed with Luciferase, at 10uM
- Assay type: functional, HepG2
- EXPERIMENTAL_CONDITIONS: tested at 10 uM
In all, about 69,000 compounds went through this assay and about 8,600 (12%) showed an effect of 50% or more. Many of the other results were omitted from the sample, so strong results are more common in it than they were.
State just the number; it will be interpreted in %.

Task item: Please supply the value of reported INHIBITION for the item CN(C)c1ccc(C(O)CNC(=O)NCCCc2ccccc2)cc1 (stereo not given)
Reply: 5.91

Task item: Please supply the value of reported INHIBITION for the item Cn1c(=O)oc2ccc(NC(=O)N3CCc4ccccc4C3)cc21
Reply: -3.43

Task item: Please supply the value of reported INHIBITION for the item Cc1cnn(CC2CCCCN2C(=O)c2cnc3n[nH]c(C)c3c2)c1 (stereo not given)
Reply: -14

Task item: Please supply the value of reported INHIBITION for the item CC(C)(C)c1oc(C(N)=O)cc1CN1CCOC(C(F)(F)F)C1 (stereo not given)
Reply: 22.5

Task item: Please supply the value of reported INHIBITION for the item Cc1nc(CN2C(=O)CCC23CCN(Cc2cccn2C)CC3)cs1
Reply: 29.3

###

Consider the following compounds; for each one, report its INHIBITION.
- Tested on: Plasmodium berghei
- ASSAY_PROTOCOL: Screen against P. berghei liver stage (PbLuc), transformed with Luciferase, at 10uM
- Assay type: functional, HepG2
- EXPERIMENTAL_CONDITIONS: tested at 10 uM
Among all 69,000 compounds or so, about 8,600 (12%) showed an effect of 50% or more. Many of the other results were omitted from the sample, so strong results are more common in it than they were.
State just the number; it will be interpreted in %.

Task item: Please supply the value of reported INHIBITION for the item Cc1nc(C(=O)N(C)CC(F)(F)C(F)(F)F)c2ccccn12
Reply: 3.03

Task item: Please supply the value of reported INHIBITION for the item c1cnn(CC2CCCN2Cc2nc(C3CC3)no2)c1 (configuration not stated)
Reply: 11.4

Task item: Please supply the value of reported INHIBITION for the item Cc1cnn(CCNCC(=O)N2CCN(c3ccccn3)CC2)c1
Reply: -0.613

Task item: Please supply the value of reported INHIBITION for the item CCC(=O)N1CCC2(COCc3cnc(NCc4ccco4)nc32)C1 (configuration not stated)
Reply: 6.55

Task item: Please supply the value of reported INHIBITION for the item Cn1ccnc1CC1CCCN(C(=O)Cc2ccccc2)C1 (configuration not stated)
Reply: 21.9

Task item: Please supply the value of reported INHIBITION for the item O=C(NCc1cccnc1)c1nc2c(s1)CCCN2C(=O)C1CC1
Reply: 27.6

Task item: Please supply the value of reported INHIBITION for the item CCc1nnc2n1CCN(C(=O)Cc1nc(-c3ccco3)oc1C)C2
Reply: -17.6

Task item: Please supply the value of reported INHIBITION for the item Cc1cc2n(n1)CC(CNCc1ccc(-n3ccnc3C)nc1)CN2 (configuration not stated)
Reply: -13.575

Task item: Please supply the value of reported INHIBITION for the item CCSc1ccc(C(=O)N2CCC3(CC2)[C@H](O)C[C@@H]3O)s1
Reply: 16.7

Task item: Please supply the value of reported INHIBITION for the item c1ccc(NC[C@@H]2CCC[C@@H]3CN(Cc4csnn4)C[C@@H]32)nc1
Reply: 15.9

Task item: Please supply the value of reported INHIBITION for the item COc1cccc(CC2CN(C3CCC3)CCO2)c1 (configuration not stated)
Reply: 25.8

Task item: Please supply the value of reported INHIBITION for the item COc1ccc(CN2CCc3ncnc(C4CCOC4)c3CC2)cc1 (configuration not stated)
Reply: 24.6

Task item: Please supply the value of reported INHIBITION for the item O=C(NCCc1cccnc1)c1nc2c(s1)CCCN2C(=O)C1CC1
Reply: 35.8

Task item: Please supply the value of reported INHIBITION for the item O=C(NCC1(COc2cnccn2)C[C@@H](O)[C@@H](O)C1)C1CCOCC1 (some centres not stated)
Reply: -0.813

Task item: Please supply the value of reported INHIBITION for the item Cc1nnc(NC(=O)CN(C)C2CCCN(c3cccnn3)C2)s1 (configuration not stated)
Reply: 12.7

Task item: Please supply the value of reported INHIBITION for the item CN1C(=O)CCCC12CCCN(Cc1cccs1)C2 (configuration not stated)
Reply: -2.35

Task item: Please supply the value of reported INHIBITION for the item Cn1ccnc1NC[C@@H]1CCC[C@@H]2CN(Cc3nccs3)C[C@@H]21
Reply: 29
